- Test System: T1, monovalent hVISTA-ECD with polyhistidine tail (SEQ ID NO: 325) (human, UniProt Q9H7M9 33-193)
- T1 construct: also called hVISTA-ECD 6-His tag; human VISTA
- T1 sequence (Q9H7M9 other isoform, or with tags, fused parts or gaps limits assumed): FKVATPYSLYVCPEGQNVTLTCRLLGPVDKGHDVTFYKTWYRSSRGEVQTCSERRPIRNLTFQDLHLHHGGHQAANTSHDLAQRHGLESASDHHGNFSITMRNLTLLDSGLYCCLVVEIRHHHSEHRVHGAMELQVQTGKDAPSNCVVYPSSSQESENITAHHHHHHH
- Test Details: SPR, mAb captured on Protein A chip, hVISTA injected, PBST pH 6.0, 37 C
kon vs 200000 M⁻¹ s⁻¹: at or above is Yes, below is No.

Does the reported kon for P1-077891 (P1-068748 H32Y D100S) (antibody, V domains shown, Reversion mutant of P1-068748 (Kabat names); captured on a Protein A chip) VH: QVQLVESGGGVVQPGRSLRLSCAASGFTFSHYAMHWVRQAPGKGLEWVAIIWYDGSNDDYADSVKGRFTISRDNSKNTLYLQMNSLRAEDTAVYYCARDSGFYSSYYFDYWGQGTLVTVSS VL: EIVLTQSPATLSLSPGERATLSCRASQSVSSSYLAWYQQKPGQAPRLLIYDASNRATGIPARFSGSGSGTDFTLTISSLEPEDFATYYCQQYNSYPYTFGQGTKLEIK fall at or above the 200000 M⁻¹ s⁻¹ mark?
Yes

Does kon meet or surpass 200000 M⁻¹ s⁻¹ for P1-077889 (P1-068748 H32Y D58Y) (antibody, V domains shown, Reversion mutant of P1-068748 (Kabat names); captured on a Protein A chip) VH: QVQLVESGGGVVQPGRSLRLSCAASGFTFSHYAMHWVRQAPGKGLEWVAIIWYDGSNDYYADSVKGRFTISRDNSKNTLYLQMNSLRAEDTAVYYCARDSGFYDSYYFDYWGQGTLVTVSS VL: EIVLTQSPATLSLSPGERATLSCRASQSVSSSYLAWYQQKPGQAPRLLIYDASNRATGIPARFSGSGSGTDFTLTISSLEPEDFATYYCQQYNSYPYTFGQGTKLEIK ?
No

Identify whether the reported kon of the following binder is 200000 M⁻¹ s⁻¹ or greater: P1-077877 (P1-068748 H32Y D57K) (antibody, V domains shown, Reversion mutant of P1-068748 (Kabat names); captured on a Protein A chip) VH: QVQLVESGGGVVQPGRSLRLSCAASGFTFSHYAMHWVRQAPGKGLEWVAIIWYDGSNKDYADSVKGRFTISRDNSKNTLYLQMNSLRAEDTAVYYCARDSGFYDSYYFDYWGQGTLVTVSS VL: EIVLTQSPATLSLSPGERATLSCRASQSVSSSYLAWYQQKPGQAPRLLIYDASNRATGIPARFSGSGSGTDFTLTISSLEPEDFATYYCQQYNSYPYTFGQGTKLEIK
Yes

Assess whether reported kon for P1-077883 (P1-068748 H31S D57K) (antibody, V domains shown, Reversion mutant of P1-068748 (Kabat names); captured on a Protein A chip) VH: QVQLVESGGGVVQPGRSLRLSCAASGFTFSSHAMHWVRQAPGKGLEWVAIIWYDGSNKDYADSVKGRFTISRDNSKNTLYLQMNSLRAEDTAVYYCARDSGFYDSYYFDYWGQGTLVTVSS VL: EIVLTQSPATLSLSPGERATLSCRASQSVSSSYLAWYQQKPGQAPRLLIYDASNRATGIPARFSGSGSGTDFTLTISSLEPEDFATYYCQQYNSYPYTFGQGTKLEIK sits at 200000 M⁻¹ s⁻¹ or higher.
Yes

Does the reported kon for P1-077869 (P1-068748 D57K) (antibody, V domains shown, Reversion mutant of P1-068748 (Kabat names); captured on a Protein A chip) VH: QVQLVESGGGVVQPGRSLRLSCAASGFTFSHHAMHWVRQAPGKGLEWVAIIWYDGSNKDYADSVKGRFTISRDNSKNTLYLQMNSLRAEDTAVYYCARDSGFYDSYYFDYWGQGTLVTVSS VL: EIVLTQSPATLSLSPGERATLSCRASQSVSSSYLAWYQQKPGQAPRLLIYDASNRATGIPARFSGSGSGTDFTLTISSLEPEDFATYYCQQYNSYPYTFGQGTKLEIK fall at or above the 200000 M⁻¹ s⁻¹ mark?
No

FYI, the data here is from patent US20230192860A1.
